# Test system: 60 cancer cell lines
# ASSAY_NOTES: NCI 60-cell screen, SRB, whole panel (mean, delta, range)
# Assay type: cell-based
# SETUP_CONDITIONS: range over the cell panel; 10^−5 molar; 48 hours; SRB
I'd be grateful if you could share measured Growth percent, Range for these entries.
Answers are plain numbers, in %.

Entry under test: CCC(CO)Nc1nc2ccccc2c2c(=O)c3cc(Cl)ccc3sc12 (stereo not drawn) . Its Growth percent, Range was 68.60

The compound listed as COc1nc2ccccc2c2c(=O)c3cc(Cl)ccc3sc12 shows Growth percent, Range equal to 61.02

Noted for CCC(CC)Nc1nc2ccccc2c2c(=O)c3cc(Cl)ccc3sc12 : its Growth percent, Range reads 74.81

Consider O=c1c2cc(Cl)ccc2sc2c(N3CCN(Cc4ccccc4)CC3)nc3ccccc3c12 . Its measured Growth percent, Range is 60.08

Reported Growth percent, Range for O=c1c2cc(Cl)ccc2sc2c(NCCO)nc3ccccc3c12 was 101.96

The following compounds each have a reported value; give each one's Growth percent, Range.
1. CC(C)CC(C)Nc1nc2ccccc2c2c(=O)c3cc(Cl)ccc3sc12 (stereo not drawn)
2. O=c1c2ccc(Cl)cc2sc2c(Cl)nc3ccccc3c12
3. O=c1c2cc(Cl)ccc2sc2c(N3CCN(CCO)CC3)nc3ccccc3c12
4. O=c1c2cc(Cl)ccc2sc2c(N3CCN(c4ccccc4)CC3)nc3ccccc3c12

1: 49.47; 2: 57.22; 3: 83.73; 4: 60.10
